- experimentalProtocol: Evaluated for 50% cytotoxic concentration based on reduction of viability of mock-infected cells
- Format: cell-based
- conditions: human, MT4 cells (mock-infected)
Overview of reported CC50 across a group of compounds:
Value expressed in µM; do not type the unit.

Answered cases to consult:
[[record]]
smilesentry = "Cc1ccc(C(=O)Nc2ccc(S(=O)(=O)O)c3cc(S(=O)(=O)O)cc(S(=O)(=O)O)c23)cc1NC(=O)c1cccc(NC(=O)Nc2cccc(C(=O)Nc3cc(C(=O)Nc4ccc(S(=O)(=O)O)c5cc(S(=O)(=O)O)cc(S(=O)(=O)O)c45)ccc3C)c2)c1"
observedmeasurement = 250

[[record]]
smilesentry = "CC(=O)Oc1cc(S(=O)(=O)O)cc2cc(S(=O)(=O)O)cc(OC(C)=O)c12"
observedmeasurement = 461


What value of measured CC50 is listed for CCCCCCCCCCCCCCCC(=O)Oc1cc(S(=O)(=O)O)cc2cc(S(=O)(=O)O)cc(OC(=O)CCCCCCCCCCCCCCC)c12 ? 15

---

- assayTarget: Human immunodeficiency virus type 1 reverse transcriptase (Human immunodeficiency virus 1, UniProt Q72547)
pIC50: −log10 of the molar value.
property: pIC50

Answered cases to consult:
[[record]]
smilesentry = "O=S(=O)(O)c1cc(NS(=O)(=O)c2ccc(-c3ccc(S(=O)(=O)Nc4cc(S(=O)(=O)O)cc5cc(S(=O)(=O)O)cc(S(=O)(=O)O)c45)cc3)cc2)c2c(S(=O)(=O)O)cc(S(=O)(=O)O)cc2c1"
property = "pIC50"
observedmeasurement = "< 3.07"

[[record]]
smilesentry = "Nc1ccc2cc(S(=O)(=O)O)cc(S(=O)(=O)O)c2c1"
property = "pIC50"
observedmeasurement = "< 3.00"


Would you kindly look at the next entry?
What value of measured pIC50 is listed for Nc1cc(S(=O)(=O)O)cc2cc(S(=O)(=O)O)cc(S(=O)(=O)O)c12 ? < 3.00

---

- experimentalProtocol: Evaluated for 50% cytotoxic concentration based on reduction of viability of mock-infected cells
- Type: cell-based
- conditions: human, MT4 cells (mock-infected)
Overview of reported CC50 across a group of compounds:

Answered cases to consult:
[[record]]
smilesentry = "Nc1cc(S(=O)(=O)O)cc2cc(S(=O)(=O)O)cc(S(=O)(=O)O)c12"
property = "CC50"
observedmeasurement = "> 100 µM"

[[record]]
smilesentry = "O=S(=O)(O)c1cc(S(=O)(=O)O)c2cc(NS(=O)(=O)c3ccc(-c4ccc(S(=O)(=O)Nc5ccc6cc(S(=O)(=O)O)cc(S(=O)(=O)O)c6c5)cc4)cc3)ccc2c1"
property = "CC50"
observedmeasurement = "> 500 µM"

[[record]]
smilesentry = "O=S(=O)(O)c1ccc(-c2ccc(S(=O)(=O)Nc3cc(S(=O)(=O)O)cc4cc(S(=O)(=O)O)cc(S(=O)(=O)O)c34)cc2)cc1"
property = "CC50"
observedmeasurement = "> 100 µM"


What value of measured CC50 is listed for CC(=O)Oc1cc(S(=O)(=O)O)cc2cc(S(=O)(=O)O)c(N=Nc3ccccc3)c(OC(C)=O)c12 ? > 500 µM

What value of measured CC50 is listed for CC(=O)Nc1cc(S(=O)(=O)O)cc2cc(S(=O)(=O)O)cc(OC(C)=O)c12 ? > 500 µM

What value of measured CC50 is listed for O=C(Nc1cc(S(=O)(=O)O)cc2cc(S(=O)(=O)O)cc(O)c12)c1ccccc1 ? > 500 µM

---

Below are IC50 values measured for UniProt:Q72547.

[[record]]
smilesentry = "COc1cc(S(=O)(=O)O)cc2cc(S(=O)(=O)[O-])cc([N+](C)(C)C)c12"
assaytarget = "UniProt:Q72547"
observedmeasurement = "> 1 mM"

[[record]]
smilesentry = "CC(=O)Oc1cc(S(=O)(=O)O)cc2cc(S(=O)(=O)O)c(N=Nc3ccccc3)c(OC(C)=O)c12"
assaytarget = "UniProt:Q72547"
observedmeasurement = "> 1 mM"


Would you kindly look at the next entry?
Lab request: please report IC50 under test system UniProt:Q72547 for O=S(=O)(O)c1ccc(-c2ccc(S(=O)(=O)Nc3cc(S(=O)(=O)O)cc4cc(S(=O)(=O)O)cc(S(=O)(=O)O)c34)cc2)cc1 > 1 mM

---

Overview of reported pEC50 across a group of compounds:
- Test system: MT4
- experimentalProtocol: Evaluated for 50% antiviral effective concentration based on inhibition of HIV-1 (HTLV-IIIB) induced cytopathogenicity in MT-4 cells
- Type: functional, cell-based
- conditions: Homo sapiens
pEC50: −log10 of the molar value.

Answered cases to consult:
[[record]]
compound = "O=S(=O)(O)c1cc(O)c2c(O)cc(S(=O)(=O)O)cc2c1 [CHROMOTROPATE]"
observedmeasurement = "< 2.93"

[[record]]
compound = "CC(=O)Oc1cc(S(=O)(=O)O)cc2cc(S(=O)(=O)O)cc(OC(C)=O)c12"
observedmeasurement = "< 3.34"

[[record]]
compound = "CC(=O)Nc1cc(S(=O)(=O)O)cc2cc(S(=O)(=O)O)cc(O)c12"
observedmeasurement = 4.28

[[record]]
compound = "CC(=O)Nc1cc(S(=O)(=O)O)cc2cc(S(=O)(=O)O)cc(OC(C)=O)c12"
observedmeasurement = "< 3.30"

[[record]]
compound = "COc1cc(S(=O)(=O)O)cc2cc(S(=O)(=O)[O-])cc([N+](C)(C)C)c12"
observedmeasurement = "< 3.30"


Lab request: please report pEC50 under test system MT4 for Nc1c(S(=O)(=O)O)cc2cc(S(=O)(=O)O)cc(O)c2c1O < 4.92

Lab request: please report pEC50 under test system MT4 for Nc1cc(S(=O)(=O)O)cc2cc(S(=O)(=O)O)cc(O)c12 < 3.28

Lab request: please report pEC50 under test system MT4 for CC(=O)Nc1cc(S(=O)(=O)O)cc2cc(S(=O)(=O)O)cc(S(=O)(=O)O)c12 < 4.00

Lab request: please report pEC50 under test system MT4 for Nc1cc(S(=O)(=O)O)cc2cc(S(=O)(=O)O)cc(S(=O)(=O)O)c12 < 4.00

Lab request: please report pEC50 under test system MT4 for O=C(O)c1cc(NS(=O)(=O)c2ccc(-c3ccc(S(=O)(=O)Nc4cc(C(=O)O)c(O)c(S(=O)(=O)O)c4)cc3)cc2)cc(S(=O)(=O)O)c1O 4.28

Lab request: please report pEC50 under test system MT4 for Nc1ccc2cc(S(=O)(=O)O)cc(S(=O)(=O)O)c2c1 < 3.30

Lab request: please report pEC50 under test system MT4 for CCCCCCCCCCCCCCCC(=O)Nc1cc(S(=O)(=O)O)cc2cc(S(=O)(=O)O)cc(S(=O)(=O)O)c12 < 4.38

Lab request: please report pEC50 under test system MT4 for O=C(O)CCCC(=O)Nc1cc(S(=O)(=O)O)cc2cc(S(=O)(=O)O)cc(O)c12 < 3.30

Lab request: please report pEC50 under test system MT4 for COc1cc(S(=O)(=O)O)cc2cc(S(=O)(=O)O)cc(N(C)C)c12 < 3.30

Lab request: please report pEC50 under test system MT4 for O=S(=O)(O)c1cc(S(=O)(=O)O)c2cc(NS(=O)(=O)c3ccc(-c4ccc(S(=O)(=O)Nc5ccc6cc(S(=O)(=O)O)cc(S(=O)(=O)O)c6c5)cc4)cc3)ccc2c1 4.53

Lab request: please report pEC50 under test system MT4 for O=C(CCCCCCCCCCC(=O)Nc1cc(S(=O)(=O)O)cc2cc(S(=O)(=O)O)cc(S(=O)(=O)O)c12)Nc1cc(S(=O)(=O)O)cc2cc(S(=O)(=O)O)cc(S(=O)(=O)O)c12 < 4.29

Lab request: please report pEC50 under test system MT4 for O=S(=O)(O)c1ccc(-c2ccc(S(=O)(=O)Nc3cc(S(=O)(=O)O)cc4cc(S(=O)(=O)O)cc(S(=O)(=O)O)c34)cc2)cc1 < 4.00

Lab request: please report pEC50 under test system MT4 for Nc1ccc2c(S(=O)(=O)O)cc(S(=O)(=O)O)c(N)c2c1O < 5.11

Lab request: please report pEC50 under test system MT4 for O=C(O)CCCCCCCCC(=O)Nc1cc(S(=O)(=O)O)cc2cc(S(=O)(=O)O)cc(O)c12 3.87

Lab request: please report pEC50 under test system MT4 for Nc1cc(S(=O)(=O)O)c2ccccc2c1N < 3.72

Lab request: please report pEC50 under test system MT4 for O=C(Nc1cc(S(=O)(=O)O)cc2cc(S(=O)(=O)O)cc(O)c12)c1ccccc1 3.45

---

- experimentalProtocol: Evaluated for 50% cytotoxic concentration based on reduction of viability of mock-infected cells
- Type: cell-based
- conditions: human, MT4 cells (mock-infected)
property: CC50

[[record]]
smilesentry = "O=C(CCCCCCCCCCC(=O)Nc1cc(S(=O)(=O)O)cc2cc(S(=O)(=O)O)cc(S(=O)(=O)O)c12)Nc1cc(S(=O)(=O)O)cc2cc(S(=O)(=O)O)cc(S(=O)(=O)O)c12"
observedmeasurement = "> 100 µM"


What value of measured CC50 is listed for COc1cc(S(=O)(=O)O)cc2cc(S(=O)(=O)O)cc(N(C)C)c12 ? > 500 µM

What value of measured CC50 is listed for Nc1ccc2cc(S(=O)(=O)O)cc(S(=O)(=O)O)c2c1 ? > 500 µM

What value of measured CC50 is listed for O=C(O)CCCCCCCCC(=O)Nc1cc(S(=O)(=O)O)cc2cc(S(=O)(=O)O)cc(O)c12 ? > 500 µM

Data provenance is ChEMBL document CHEMBL1126206.
